system: ATP; experiment: switch fluorescence ratio, 500 uM ATP over buffer (Cy3 cluster intensity, sum of 5 cycles each) (fold (ratio)); higher = stronger signal-on switching upon ATP binding; sequences stand for … in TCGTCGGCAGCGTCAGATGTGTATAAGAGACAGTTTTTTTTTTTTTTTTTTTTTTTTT…TC; conditions: aptamer strand: ATP DNA aptamer (quencher-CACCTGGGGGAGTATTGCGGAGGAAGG + anchor), 100 nM annealed; ATP concentration: 500 uM;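 also: ATP exposure 15 min at 22 °C before imaging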
Recorded switch fluorescence ratio values for a group of sequences are listed next.
Please respond with just the number, no unit label.

# example entries with known answers
Macromolecule Sequence	switch fluorescence ratio
GGGGATGCAT	1.01
ACTTGCTTTA	1.04
ATGGTGCGGT	0.987
TTATACATGG	1.07
AATTCTGAGA	1.02
ATACCCAAGC	1.09
AAAATGGTTG	1.04
GTCGCGGGGT	1.03

Measured switch fluorescence ratio of AGGTTAGAGG : 0.993

Measured switch fluorescence ratio of AGGGTATTTG : 0.987

---

Recorded switch fluorescence ratio values for a group of sequences are listed next.
test system: ATP; test: switch fluorescence ratio, 500 uM ATP over buffer (Cy3 cluster intensity, sum of 5 cycles each) (fold (ratio)); higher = stronger signal-on switching upon ATP binding; sequences stand for … in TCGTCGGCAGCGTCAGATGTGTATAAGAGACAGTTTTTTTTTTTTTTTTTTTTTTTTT…TC; conditions: aptamer strand: ATP DNA aptamer (quencher-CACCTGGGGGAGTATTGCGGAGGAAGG + anchor), 100 nM annealed; ATP concentration: 500 uM;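 also: ATP exposure 15 min at 22 °C before imaging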
Please respond with just the number, no unit label.

Macromolecule Sequence	switch fluorescence ratio
TGCGGCTTCG	0.913
TCGTAGTTGC	1.24
GCTTATTAGT	1

The record that follows has no switch fluorescence ratio shown yet.
Measured switch fluorescence ratio of TTGGGGAAAC : 0.99

---

test system: ATP; test: switch fluorescence ratio, 500 uM ATP over buffer (Cy3 cluster intensity, sum of 5 cycles each) (fold (ratio)); higher = stronger signal-on switching upon ATP binding; sequences stand for … in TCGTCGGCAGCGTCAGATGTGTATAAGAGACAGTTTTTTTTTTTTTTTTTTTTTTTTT…TC; conditions: aptamer strand: ATP DNA aptamer (quencher-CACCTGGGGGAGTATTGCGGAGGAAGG + anchor), 100 nM annealed; ATP concentration: 500 uM;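 also: ATP exposure 15 min at 22 °C before imaging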
Recorded switch fluorescence ratio values for a group of sequences are listed next.
Please respond with just the number, no unit label.

# example entries with known answers
Macromolecule Sequence	switch fluorescence ratio
TTTGGTTCTC	0.977
AAGCCGTGGC	0.975
AATTTTGGTA	0.994

Measured switch fluorescence ratio of AAGATATCGA : 1.02

Measured switch fluorescence ratio of GCATTATCTA : 1.01

Measured switch fluorescence ratio of ATCATAGGGG : 1

Measured switch fluorescence ratio of CCCGGTTTAG : 1.03

Measured switch fluorescence ratio of TTTTATCCTT : 1

Measured switch fluorescence ratio of ACGTGGGGGT : 1.01

Measured switch fluorescence ratio of ATGGTTGAGG : 0.987

Measured switch fluorescence ratio of GGACTAGGTT : 1.01

Measured switch fluorescence ratio of TTATAAATAT : 1.08

Measured switch fluorescence ratio of TGGTTAACTG : 1.13

Measured switch fluorescence ratio of GATGTAAAGG : 0.989

Measured switch fluorescence ratio of CGGAATTTTT : 0.971

Measured switch fluorescence ratio of TCCATGGGGT : 0.984

Measured switch fluorescence ratio of TTTCGACGTC : 0.997

Measured switch fluorescence ratio of GCTTTTTTTT : 1.01

Measured switch fluorescence ratio of AAGGGCGGGA : 1.02

---

Recorded switch fluorescence ratio values for a group of sequences are listed next.
tested on: ATP; assay: switch fluorescence ratio, 500 uM ATP over buffer (Cy3 cluster intensity, sum of 5 cycles each) (fold (ratio)); higher = stronger signal-on switching upon ATP binding; sequences stand for … in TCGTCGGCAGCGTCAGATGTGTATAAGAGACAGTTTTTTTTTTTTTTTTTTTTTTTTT…TC; conditions: aptamer strand: ATP DNA aptamer (quencher-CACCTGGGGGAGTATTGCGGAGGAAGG + anchor), 100 nM annealed; ATP concentration: 500 uM;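 also: ATP exposure 15 min at 22 °C before imaging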
Please respond with just the number, no unit label.

# example entries with known answers
Macromolecule Sequence	switch fluorescence ratio
TAGATGTATT	0.974
CTGTCGGGGT	0.982
TAAAAGGTGA	0.99
ATCTCACTT	1.02
AAATGGATCG	1
GTGTCCGGGC	0.979
TAGCATTGTG	1.02
TTACTGAGGT	0.992

Measured switch fluorescence ratio of GAATTCCAGT : 0.997

Measured switch fluorescence ratio of GCTTTGATTT : 1.02

Measured switch fluorescence ratio of AGCCTTTTTC : 1.08

Measured switch fluorescence ratio of GTTGGAAAGG : 0.97

Measured switch fluorescence ratio of GCACTTGTAA : 1.01

Measured switch fluorescence ratio of AACGGCGCCA : 0.983

Measured switch fluorescence ratio of TTATGGGGGG : 1.01

Measured switch fluorescence ratio of GATCATGCCT : 1.05

---

system: ATP; assay: switch fluorescence ratio, 500 uM ATP over buffer (Cy3 cluster intensity, sum of 5 cycles each) (fold (ratio)); higher = stronger signal-on switching upon ATP binding; sequences stand for … in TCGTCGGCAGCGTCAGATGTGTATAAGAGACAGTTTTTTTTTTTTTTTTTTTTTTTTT…TC; conditions: aptamer strand: ATP DNA aptamer (quencher-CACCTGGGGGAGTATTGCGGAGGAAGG + anchor), 100 nM annealed; ATP concentration: 500 uM;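 also: ATP exposure 15 min at 22 °C before imaging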
Metric: switch fluorescence ratio
Please respond with just the number, no unit label.

# example entries with known answers
Macromolecule Sequence	Tested On	switch fluorescence ratio
TTAAGGGATT	ATP	0.993
AAGACCTTAT	ATP	1.05
ATTCTTTTGC	ATP	1.03
ATAGTTGCGG	ATP	1.05
TATAGGGCC	ATP	1

Measured switch fluorescence ratio of TCCGTGTCTA : 1.07

Measured switch fluorescence ratio of GTGATTTTTT : 1.01

Measured switch fluorescence ratio of TAGGTTGGGT : 0.992

Measured switch fluorescence ratio of ATTGTGGGGG : 0.991

Measured switch fluorescence ratio of ACAAACGGGT : 1.44

Measured switch fluorescence ratio of TGGGTGGGCT : 0.975

---

test system: ATP; experiment: switch fluorescence ratio, 500 uM ATP over buffer (Cy3 cluster intensity, sum of 5 cycles each) (fold (ratio)); higher = stronger signal-on switching upon ATP binding; sequences stand for … in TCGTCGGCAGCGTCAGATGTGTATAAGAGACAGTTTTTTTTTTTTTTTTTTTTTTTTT…TC; details: aptamer strand: ATP DNA aptamer (quencher-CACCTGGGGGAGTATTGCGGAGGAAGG + anchor), 100 nM annealed; ATP concentration: 500 uM;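 also: ATP exposure 15 min at 22 °C before imaging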
Metric: switch fluorescence ratio

Macromolecule Sequence	Reported Measurement
TCAGTCAAGG	0.974
CACAACTTAA	0.987
GGGACTATGA	1
TCTGAATTCA	0.972
AATAGTATCT	1.01

Log: ATP, sequence GCTTGCGATG , switch fluorescence ratio = 1.01

Log: ATP, sequence TAGGTCATTG , switch fluorescence ratio = 0.995

---

system: ATP; assay: switch fluorescence ratio, 500 uM ATP over buffer (Cy3 cluster intensity, sum of 5 cycles each) (fold (ratio)); higher = stronger signal-on switching upon ATP binding; sequences stand for … in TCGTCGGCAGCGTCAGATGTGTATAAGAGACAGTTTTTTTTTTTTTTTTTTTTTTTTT…TC; details: aptamer strand: ATP DNA aptamer (quencher-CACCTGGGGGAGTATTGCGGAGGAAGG + anchor), 100 nM annealed; ATP concentration: 500 uM;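 also: ATP exposure 15 min at 22 °C before imaging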
Metric: switch fluorescence ratio

Measured switch fluorescence ratio of GCTGTTACGG : 0.983

Measured switch fluorescence ratio of ATTTTATTCT : 1

Measured switch fluorescence ratio of CGAGCCCTTA : 0.986

Measured switch fluorescence ratio of ATGCTCTGCC : 0.992

Measured switch fluorescence ratio of TCTGCTAGTT : 1.02

Measured switch fluorescence ratio of GGGCTGGTTT : 0.981

Measured switch fluorescence ratio of AAGTTAATGT : 1

Measured switch fluorescence ratio of TGTGTTTCGT : 1.01

---

test system: ATP; test: switch fluorescence ratio, 500 uM ATP over buffer (Cy3 cluster intensity, sum of 5 cycles each) (fold (ratio)); higher = stronger signal-on switching upon ATP binding; sequences stand for … in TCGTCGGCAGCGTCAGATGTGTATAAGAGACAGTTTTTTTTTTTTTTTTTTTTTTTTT…TC; conditions: aptamer strand: ATP DNA aptamer (quencher-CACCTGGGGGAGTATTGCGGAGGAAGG + anchor), 100 nM annealed; ATP concentration: 500 uM;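 also: ATP exposure 15 min at 22 °C before imaging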
Metric: switch fluorescence ratio
Please respond with just the number, no unit label.

Measured switch fluorescence ratio of TTTAGGGTGA : 1.05
